Molecular target: UniProt A0A0H2ZM50
Sequence (A0A0H2ZM50 entry or part of it): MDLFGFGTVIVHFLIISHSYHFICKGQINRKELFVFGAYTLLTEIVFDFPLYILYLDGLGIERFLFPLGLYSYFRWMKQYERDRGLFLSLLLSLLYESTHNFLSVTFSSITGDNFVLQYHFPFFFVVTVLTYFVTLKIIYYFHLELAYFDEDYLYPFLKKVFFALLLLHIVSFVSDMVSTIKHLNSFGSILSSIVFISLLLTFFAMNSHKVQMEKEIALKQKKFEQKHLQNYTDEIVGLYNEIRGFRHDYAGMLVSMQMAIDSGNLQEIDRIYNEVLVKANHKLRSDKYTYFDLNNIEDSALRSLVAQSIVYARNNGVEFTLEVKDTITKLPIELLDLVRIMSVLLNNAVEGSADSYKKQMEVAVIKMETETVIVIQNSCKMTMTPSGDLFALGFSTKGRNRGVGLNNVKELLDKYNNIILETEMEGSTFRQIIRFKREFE
Test: cell-based
PROPERTY_MEASURED: EC50 (nM)
Kindly answer with a numeric value in nM, unit omitted.

Query EC50 on UniProt A0A0H2ZM50 for CC[C@H](C)[C@H](NC(=O)[C@H](Cc1ccccc1)NC(=O)[C@H](CC(=O)O)NC(=O)[C@H](CCCNC(=N)N)NC(=O)[C@H](CCc1ccccc1)NC(=O)[C@H](Cc1ccccc1)NC(=O)[C@H](CCCCN)NC(=O)[C@H](CO)NC(=O)[C@H](CC(C)C)NC(=O)[C@H](CCCNC(=N)N)NC(=O)[C@H](CCSC)NC(=O)[C@@H](N)CCC(=O)O)C(=O)N[C@@H](CC(C)C)C(=O)N[C@@H](CCC(N)=O)C(=O)N[C@@H](CCCNC(=N)N)C(=O)N[C@@H](CCCCN)C(=O)N[C@@H](CCCCN)C(=O)O
43.4
